# test protocol: Single ascending-dose (SAD) study, plasma pharmacokinetics
# Type: in vivo, human
# condition description: both sexes, human, plasma, oral; SAD single dose 80 mg, N = 8, mean (SD); read-out: t1/2 (converted)
measured property: half-life

Need half-life, item Cc1nc(-c2cnc(N3CCN(CCCc4c[nH]c5ccc(C#N)cc45)CC3)nc2)sc1C(N)=O [HEC113995PA·H2O]
33.4 h

---

# test protocol: Multiple ascending-dose (MAD) study, plasma pharmacokinetics
# Assay type: in vivo, human
# condition description: both sexes, human, plasma, oral, 40 mg, MAD 40 mg (N = 10), D1, after standard meal, mean (SD); read-out: AUC0-t
measured property: AUC(0-t) (µg·h/mL)
The response must be a number in µg·h/mL with no trailing unit.

Which AUC(0-t) is reported for this compound? Cc1nc(-c2cnc(N3CCN(CCCc4c[nH]c5ccc(C#N)cc45)CC3)nc2)sc1C(N)=O [HEC113995PA·H2O]
2.92

---

# test protocol: Multiple ascending-dose (MAD) study, plasma pharmacokinetics
# Format: in vivo, human
# condition description: both sexes, human, plasma, oral; MAD 40 mg (N = 10), D10, QD after standard meal, mean (SD)
measured property: AUC(0-inf) (ng·h/mL)
Give the value, in units of ng·h/mL, as a plain number.

What does the data say about its AUC(0-inf)? Entry: Cc1nc(-c2cnc(N3CCN(CCCc4c[nH]c5ccc(C#N)cc45)CC3)nc2)sc1C(N)=O [HEC113995PA·H2O]
10500

---

# test protocol: Food effect study, plasma pharmacokinetics
# Format: in vivo, human
# condition description: both sexes, human, plasma, po, 20 mg, single oral 20 mg, fed with high-fat, high-calorie meal, N = 18, mean (SD)
measured property: Cmax (ng/mL)
Give a bare numeral; the unit ng/mL is implied.

Bench note: what Cmax did Cc1nc(-c2cnc(N3CCN(CCCc4c[nH]c5ccc(C#N)cc45)CC3)nc2)sc1C(N)=O [HEC113995PA·H2O] show?
117

---

# test protocol: Single ascending-dose (SAD) study, plasma pharmacokinetics
# Assay type: in vivo, human
# condition description: both sexes, human, plasma, oral; SAD single dose 2.5 mg, N = 6, mean (SD); read-out: Vz/F
measured property: Vd/F
Express your answer as a number followed by its unit.

Requested field: Vd/F. Item: Cc1nc(-c2cnc(N3CCN(CCCc4c[nH]c5ccc(C#N)cc45)CC3)nc2)sc1C(N)=O [HEC113995PA·H2O]
518 L

---

# test protocol: Single ascending-dose (SAD) study, plasma pharmacokinetics
# Type: in vivo, human
# condition description: both sexes, human, plasma, oral; SAD single dose 60 mg, N = 8, mean (SD)
measured property: k el (s⁻¹)
Quick reminder: number only, in s⁻¹, skip the unit.

Value lookup for k el; key = Cc1nc(-c2cnc(N3CCN(CCCc4c[nH]c5ccc(C#N)cc45)CC3)nc2)sc1C(N)=O [HEC113995PA·H2O]
6.11e-06

---

# test protocol: Single ascending-dose (SAD) study, plasma pharmacokinetics
# Format: in vivo, human
# condition description: both sexes, human, plasma, oral; SAD single dose 80 mg, N = 8, mean (SD); read-out: Vz/F
measured property: Vd/F (L)
State the answer as a number, implicitly in L.

Any idea what Vd/F was measured for Cc1nc(-c2cnc(N3CCN(CCCc4c[nH]c5ccc(C#N)cc45)CC3)nc2)sc1C(N)=O [HEC113995PA·H2O] ?
666
